# Test Name: Photostability protocol: thin film irradiated with xenon arc lamp
# Assay type: physicochemical
# Setup Conditions: 1 hour xenon arc lamp
Entries annotated with measured Photostability (% remains)
Hi! Could you send only the number? It should be in %, unit omitted.

CN(/C=C(\C(=O)C(F)(F)F)c1ccccc1)c1ccccc1
90
CCN(/C=C(\C(=O)C(F)(F)F)c1ccccc1)CC
97
O=C(/C(=C\N1CCCN(/C=C(\C(=O)C(F)(F)F)c2ccccc2)c2ccccc21)c1ccccc1)C(F)(F)F
97

Need Photostability (% remains), item O=C(/C(=C(/c1ccccc1)N1CCCC1)c1ccccc1)C(F)(F)F 70

----------
Entries annotated with measured Photostability
# Test Name: Photostability protocol: thin film irradiated with xenon arc lamp
# Format: physicochemical
# Setup Conditions: 1 hour xenon arc lamp, ratio of absorbance at λmax irradiated vs unirradiated, ^a = average of multiple measurements
Hi! Could you send only the number? It should be in %, unit omitted.

Some compounds with known Photostability results, for comparison:
CCN(/C=C(/C(=O)C(=O)N(C)C)c1ccccc1)CC [Compound 261]
63
COC(=O)c1ccc2c(c1)CCN2/C=C(/C(=O)C(=O)OC(C)(C)c1ccccc1)c1ccccc1 [Compound 280]
68
CCOC(=O)C(=O)/C(=C\N(CC)c1ccccc1)c1ccccc1 [Compound 248]
78
CCN(/C=C(/C(=O)c1ccccc1)c1ccccc1)c1ccccc1 [Compound 245]
55
Cc1ccc(C(=O)/C(=C/N2CCc3ccccc32)c2ccccc2)cc1 [Compound 272]
80
CCOC(=O)C(=O)/C(=C/N(CC)CC)c1ccccc1 [Compound 260]
40
CCN(/C=C(/C(=O)c1ccccc1)c1ccccc1)CC [Compound 268]
10
CCN(/C=C(/C(=O)c1ccc(C)cc1)c1ccccc1)c1ccccc1 [Compound 273]
73

Then there is this compound:
Need Photostability, item COC(=O)c1ccc2c(c1)CCN2C=C(C(=O)C(C)(C)C)c1ccc(C)cc1 [Compound 295] 68

----------
# Test Name: Photostability protocol: thin film irradiated with xenon arc lamp
# Type: physicochemical
# Setup Conditions: 1 hour xenon arc lamp, ratio of absorbance at λmax irradiated vs unirradiated, ^a = average of multiple measurements
Threshold check on Photostability: at or above 60% gives t, strictly below gives f.

CN(C)C(=O)C(=O)/C(=C\N1CCc2ccccc21)c1ccccc1 [Compound 258]
t
CCCCC(CC)COC(=O)c1ccc2c(c1)CCN2/C=C(/C(=O)C(C)(C)C)c1ccc(Br)cc1 (centres unmarked) [Compound 309]
t
CN(/C=C(\C(=O)C(F)(F)F)c1ccccc1)c1ccccc1 [Compound 183]
t
CCN(/C=C(/C(=O)C(=O)OC(C)(C)C)c1ccccc1)c1ccccc1 [Compound 271]
t
CC(C)(C)OC(=O)C(=O)/C(=C/N(c1ccccc1)c1ccccc1)c1ccccc1 [Compound 270]
t

Check the entry CN(C)/C=C(/C(=O)c1ccccc1)c1ccccc1 [Compound 240] : does Photostability equal or exceed 60%? f

----------
Entries annotated with measured Photostability
# Test Name: Photostability protocol: thin film irradiated with xenon arc lamp
# Format: physicochemical
# Setup Conditions: 1 hour xenon arc lamp, ratio of absorbance at λmax irradiated vs unirradiated, ^a = average of multiple measurements
Hi! Could you send only the number? It should be in %, unit omitted.

Some compounds with known Photostability results, for comparison:
CCN(/C=C(/C(=O)c1ccc(S(=O)(=O)N(C)C)cc1)c1ccccc1)c1ccccc1
20
CCC(CC)(CC)OC(=O)/C(=C/N1CCc2cc(C(=O)OC)ccc21)c1ccccc1
78
COc1ccccc1C(=O)/C(=C/N1CCc2ccccc21)c1ccccc1
56
COC(=O)c1ccc2c(c1)CCN2C=C(C(=O)C(C)(C)C)c1ccc(C(C)(C)C)cc1
73

Need Photostability, item O=C(/C(=C/N1CCc2ccccc21)c1ccccc1)c1ccccc1 70

Need Photostability, item CCOC(=O)C(=O)/C(=C\N1CCc2ccccc21)c1ccccc1 80

Need Photostability, item COC(=O)c1ccc2c(c1)CCN2/C=C(/C(=O)c1ccc(C(C)(C)C)cc1)c1ccccc1 76

Need Photostability, item CCN(/C=C(\C(=O)C(F)(F)F)c1ccccc1)CC 97
